Recorded values, source patent US20160031986A1.

Listing: koff of selected binders
- System tested: cynomolgus monkey DLL4 extracellular domain (cynomolgus monkey)
- Experiment notes: Biacore SPR

# Binder, koff (s⁻¹)
data = [
    ("h1A11.B4 (antibody, V domains shown) VH: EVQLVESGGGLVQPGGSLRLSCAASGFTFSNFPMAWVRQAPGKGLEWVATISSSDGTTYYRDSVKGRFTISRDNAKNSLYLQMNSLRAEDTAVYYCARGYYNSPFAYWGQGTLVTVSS VL: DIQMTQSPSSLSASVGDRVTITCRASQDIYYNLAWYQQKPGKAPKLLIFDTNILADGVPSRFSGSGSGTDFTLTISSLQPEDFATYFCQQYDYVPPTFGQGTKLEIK", 0.00099),
    ("38H12 rat monoclonal antibody (antibody, V domains shown) VH: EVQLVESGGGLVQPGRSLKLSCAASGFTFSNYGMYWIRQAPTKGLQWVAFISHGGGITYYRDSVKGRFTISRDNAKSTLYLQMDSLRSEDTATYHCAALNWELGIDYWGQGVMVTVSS VL: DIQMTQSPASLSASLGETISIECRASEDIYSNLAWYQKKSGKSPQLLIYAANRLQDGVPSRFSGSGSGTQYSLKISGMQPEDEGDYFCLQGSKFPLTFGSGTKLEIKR", "9.8e-05"),
]
